Test system JAK2 (Homo sapiens (Human)), pKd listed for each of the compounds.
Quick note: pKd means taking -log10 of the concentration in moles per liter.

# count of solved cases: 4
# COMPOUND, TEST_SYSTEM, TEST_READOUT, QUANTITATIVE_READOUT
measured = [
    ("CN1Cc2c(ccc(F)c2Cl)OCCNC(=O)c2cnn3ccc1nc23 [Example 39]", "JAK2 (Homo sapiens (Human))", "pKd", 7.57),
    ("CCN1Cc2cc(F)ccc2OCCNC(=O)c2cnn3ccc1nc23 [Example 43]", "JAK2 (Homo sapiens (Human))", "pKd", 8.43),
    ("O=C1NCCCOc2ccc(F)cc2CCc2ccn3ncc1c3n2 [Example 103]", "JAK2 (Homo sapiens (Human))", "pKd", 8.72),
    ("O=C1NCCOc2ccc(F)cc2C(CO)Nc2ccn3ncc1c3n2 (centres unmarked) [Example 98]", "JAK2 (Homo sapiens (Human))", "pKd", 9.13),
]

Q) Please tell me the measured pKd for CC1Oc2ccc3ncc(n3n2)C(=O)NCCOc2ccc(F)cc21 (centres unmarked) [Example 41] ; system: JAK2 (Homo sapiens (Human)).
Sequence (O60674 whole entry): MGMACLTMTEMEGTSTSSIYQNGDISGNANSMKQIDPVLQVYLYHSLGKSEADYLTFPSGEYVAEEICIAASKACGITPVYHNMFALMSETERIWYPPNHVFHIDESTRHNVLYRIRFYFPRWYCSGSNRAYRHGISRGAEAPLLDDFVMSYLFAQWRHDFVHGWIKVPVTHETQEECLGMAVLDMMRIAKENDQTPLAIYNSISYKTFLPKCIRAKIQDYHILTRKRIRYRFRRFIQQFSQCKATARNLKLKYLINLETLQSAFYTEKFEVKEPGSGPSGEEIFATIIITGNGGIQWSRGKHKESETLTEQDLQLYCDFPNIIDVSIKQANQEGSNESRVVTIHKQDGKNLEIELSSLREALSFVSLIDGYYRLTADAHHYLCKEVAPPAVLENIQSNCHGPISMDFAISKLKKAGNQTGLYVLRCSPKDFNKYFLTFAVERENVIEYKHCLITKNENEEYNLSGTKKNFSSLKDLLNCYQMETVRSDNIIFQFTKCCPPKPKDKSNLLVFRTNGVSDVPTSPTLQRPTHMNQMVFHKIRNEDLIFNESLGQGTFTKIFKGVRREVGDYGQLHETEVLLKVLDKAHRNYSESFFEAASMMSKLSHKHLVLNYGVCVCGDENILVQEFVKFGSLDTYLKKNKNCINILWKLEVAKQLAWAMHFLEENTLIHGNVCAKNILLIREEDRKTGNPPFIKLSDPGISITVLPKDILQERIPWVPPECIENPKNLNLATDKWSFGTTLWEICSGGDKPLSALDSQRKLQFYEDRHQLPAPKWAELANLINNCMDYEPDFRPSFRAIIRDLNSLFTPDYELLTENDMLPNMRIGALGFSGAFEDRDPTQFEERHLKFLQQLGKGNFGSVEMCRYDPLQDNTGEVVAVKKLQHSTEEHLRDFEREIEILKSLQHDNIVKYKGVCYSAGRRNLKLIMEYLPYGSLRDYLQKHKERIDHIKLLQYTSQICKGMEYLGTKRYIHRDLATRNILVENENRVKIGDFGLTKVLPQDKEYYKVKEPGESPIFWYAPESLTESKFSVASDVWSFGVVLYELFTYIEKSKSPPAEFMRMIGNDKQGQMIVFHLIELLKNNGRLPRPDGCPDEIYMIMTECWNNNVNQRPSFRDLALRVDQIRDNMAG
A) 8.59
